Data origin: the supplement of paper PMC10307832

System: HOP-62
Test: relative viability (nuclei count vs DMSO), 5 days (fraction); higher = more cells survive
Settings: first compound 0.08 µM

compound | relative viability
Cc1cnc(-c2cnc(NCCNc3ccc(C#N)cn3)nc2-c2ccc(Cl)cc2Cl)[nH]1 + COc1cc2c(Oc3ccc(NC(=O)C4(C(=O)Nc5ccc(F)cc5)CC4)cc3F)ccnc2cc1OCCCN1CCOCC1 [Foretinib] (partner 0.25 µM) | 1.05
Cc1cnc(-c2cnc(NCCNc3ccc(C#N)cn3)nc2-c2ccc(Cl)cc2Cl)[nH]1 + CCNC(=O)c1noc(-c2cc(C(C)C)c(O)cc2O)c1-c1ccc(CN2CCOCC2)cc1 [Luminespib] (partner 0.01 µM) | 0.955
Cc1cnc(-c2cnc(NCCNc3ccc(C#N)cn3)nc2-c2ccc(Cl)cc2Cl)[nH]1 + N=C(N)NC(=N)NCCc1ccccc1 [Phenformin] (partner 250 µM) | 0.754
Cc1cnc(-c2cnc(NCCNc3ccc(C#N)cn3)nc2-c2ccc(Cl)cc2Cl)[nH]1 + CS(=O)(=O)N1CCN(Cc2cc3nc(-c4cccc5[nH]ncc45)nc(N4CCOCC4)c3s2)CC1 [Pictilisib] (partner 1 µM) | 0.777
Cc1cnc(-c2cnc(NCCNc3ccc(C#N)cn3)nc2-c2ccc(Cl)cc2Cl)[nH]1 + CC(=O)c1c(C)c2cnc(Nc3ccc(N4CCNCC4)cn3)nc2n(C2CCCC2)c1=O [Palbociclib] (partner 0.5 µM) | 0.531
Cc1cnc(-c2cnc(NCCNc3ccc(C#N)cn3)nc2-c2ccc(Cl)cc2Cl)[nH]1 + O=C(CCCCCCC(=O)Nc1ccccc1)NO [Vorinostat] (partner 1 µM) | 0.733

* * *

System: ChaGo-K-1
Assay: relative viability (nuclei count vs DMSO), 5 days (fraction); higher = more cells survive
Conditions: first compound 0.05 µM
Some molecules, each annotated with its measured relative viability.
quantity-name: relative viability

molecule | experimental-result
Nc1ccn([C@@H]2O[C@H](CO)[C@@H](O)[C@@H]2O)c(=O)n1 [Cytarabine] + N=C(N)NC(=N)NCCc1ccccc1 [Phenformin] (partner 250 µM) | 0.323
Nc1ccn([C@@H]2O[C@H](CO)[C@@H](O)[C@@H]2O)c(=O)n1 [Cytarabine] + CC(C)C[C@H](NC(=O)[C@H](Cc1ccccc1)NC(=O)c1cnccn1)B(O)O [Bortezomib] (partner 0.002 µM) | 0.443
COc1cc2nccc(Oc3ccc(NC(=O)Nc4cc(C)on4)c(Cl)c3)c2cc1OC [Tivozanib] + Nc1ncn([C@H]2C[C@H](O)[C@@H](CO)O2)c(=O)n1 [Decitabine] (partner 2 µM) | 0.515
COc1cc2nccc(Oc3ccc(NC(=O)Nc4cc(C)on4)c(Cl)c3)c2cc1OC [Tivozanib] + Cc1cc(Nc2cc(N3CCN(C)CC3)nc(Sc3ccc(NC(=O)C4CC4)cc3)n2)n[nH]1 [Tozasertib] (partner 0.1 µM) | 0.216
Nc1ccn([C@@H]2O[C@H](CO)[C@@H](O)[C@@H]2O)c(=O)n1 [Cytarabine] + O=C(CCCCCCC(=O)Nc1ccccc1)NO [Vorinostat] (partner 1 µM) | 0.471

* * *

Test system: A-427
Assay: relative viability (nuclei count vs DMSO), 5 days (fraction); higher = more cells survive
Conditions: first compound 0.01581 µM
Some molecules, each annotated with its measured relative viability.
quantity-name: relative viability

molecule | study-system | experimental-result
COc1cc2nccc(Oc3ccc(NC(=O)Nc4cc(C)on4)c(Cl)c3)c2cc1OC [Tivozanib] + Nc1nc2[nH]cc(CCc3ccc(C(=O)N[C@@H](CCC(=O)O)C(=O)O)cc3)c2c(=O)[nH]1 [Pemetrexed] (partner 0.2 µM) | A-427 | 0.952
Nc1ccn([C@@H]2O[C@H](CO)[C@@H](O)[C@@H]2O)c(=O)n1 [Cytarabine] + Nc1nc2[nH]cc(CCc3ccc(C(=O)N[C@@H](CCC(=O)O)C(=O)O)cc3)c2c(=O)[nH]1 [Pemetrexed] (partner 0.2 µM) | A-427 | 0.509
Nc1ccn([C@@H]2O[C@H](CO)[C@@H](O)[C@@H]2O)c(=O)n1 [Cytarabine] + CC(C)C[C@H](NC(=O)[C@H](Cc1ccccc1)NC(=O)c1cnccn1)B(O)O [Bortezomib] (partner 0.002 µM) | A-427 | 0.46
Nc1ccn([C@@H]2O[C@H](CO)[C@@H](O)[C@@H]2O)c(=O)n1 [Cytarabine] + CC(=O)Nc1cccc(-n2c(=O)n(C3CC3)c(=O)c3c(Nc4ccc(I)cc4F)n(C)c(=O)c(C)c32)c1 [Trametinib] (partner 0.02 µM) | A-427 | 0.616

* * *

Some molecules, each annotated with its measured relative viability.
System: IA-LM
Experiment: relative viability (nuclei count vs DMSO), 5 days (fraction); higher = more cells survive
Settings: first compound 4 µM
quantity-name: relative viability

molecule | experimental-result
Cc1sc2c(c1C)C(c1ccc(Cl)cc1)=N[C@@H](CC(=O)OC(C)(C)C)c1nnc(C)n1-2 [JQ1] + CS(=O)(=O)N1CCN(Cc2cc3nc(-c4cccc5[nH]ncc45)nc(N4CCOCC4)c3s2)CC1 [Pictilisib] (partner 1 µM) | 0.0786
Cc1sc2c(c1C)C(c1ccc(Cl)cc1)=N[C@@H](CC(=O)OC(C)(C)C)c1nnc(C)n1-2 [JQ1] + C[C@]1(O)C[C@@H](c2nc(-c3ccc4ccc(-c5ccccc5)nc4c3)c3c(N)nccn32)C1 [Linsitinib] (partner 1 µM) | 0.0793

* * *

System: ChaGo-K-1
Experiment: relative viability (nuclei count vs DMSO), 5 days (fraction); higher = more cells survive
Details: first compound 0.01581 µM
Some molecules, each annotated with its measured relative viability.

molecule | relative viability
COc1cc2nccc(Oc3ccc(NC(=O)Nc4cc(C)on4)c(Cl)c3)c2cc1OC [Tivozanib] + COc1cc2c(Oc3ccc(NC(=O)C4(C(=O)Nc5ccc(F)cc5)CC4)cc3F)ccnc2cc1OCCCN1CCOCC1 [Foretinib] (partner 0.25 µM) | 0.914
Nc1ccn([C@@H]2O[C@H](CO)[C@@H](O)[C@@H]2O)c(=O)n1 [Cytarabine] + C[C@@H](Oc1cc(-c2cnn(C3CCNCC3)c2)cnc1N)c1c(Cl)ccc(F)c1Cl [Crizotinib] (partner 1 µM) | 0.717
Nc1ccn([C@@H]2O[C@H](CO)[C@@H](O)[C@@H]2O)c(=O)n1 [Cytarabine] + CC(=O)Nc1cccc(-n2c(=O)n(C3CC3)c(=O)c3c(Nc4ccc(I)cc4F)n(C)c(=O)c(C)c32)c1 [Trametinib] (partner 0.02 µM) | 0.625
Nc1ccn([C@@H]2O[C@H](CO)[C@@H](O)[C@@H]2O)c(=O)n1 [Cytarabine] + CS(=O)(=O)N1CCN(Cc2cc3nc(-c4cccc5[nH]ncc45)nc(N4CCOCC4)c3s2)CC1 [Pictilisib] (partner 1 µM) | 0.459

* * *

Some molecules, each annotated with its measured relative viability.
System: H3255
Assay: relative viability (nuclei count vs DMSO), 5 days (fraction); higher = more cells survive
Conditions: first compound 500 µM

molecule | relative viability
O=C(O)CCCCC(CCSCc1ccccc1)SCc1ccccc1 (centres undefined) [CPI-613] + Cc1cc(Nc2cc(N3CCN(C)CC3)nc(Sc3ccc(NC(=O)C4CC4)cc3)n2)n[nH]1 [Tozasertib] (partner 0.1 µM) | 0.753
O=C(O)CCCCC(CCSCc1ccccc1)SCc1ccccc1 (centres undefined) [CPI-613] + Cc1nc(Nc2ncc(C(=O)Nc3c(C)cccc3Cl)s2)cc(N2CCN(CCO)CC2)n1 [Dasatinib] (partner 0.075 µM) | 0.335
O=C(O)CCCCC(CCSCc1ccccc1)SCc1ccccc1 (centres undefined) [CPI-613] + CC1(C)CCC(c2ccc(Cl)cc2)=C(CN2CCN(c3ccc(C(=O)NS(=O)(=O)c4ccc(N[C@H](CCN5CCOCC5)CSc5ccccc5)c(S(=O)(=O)C(F)(F)F)c4)cc3)CC2)C1 [Navitoclax] (partner 0.5 µM) | 0.562
O=C(O)CCCCC(CCSCc1ccccc1)SCc1ccccc1 (centres undefined) [CPI-613] + N=C(N)NC(=N)NCCc1ccccc1 [Phenformin] (partner 250 µM) | 0.299

* * *

Some molecules, each annotated with its measured relative viability.
System: NCI-H1623
Experiment: relative viability (nuclei count vs DMSO), 5 days (fraction); higher = more cells survive
Conditions: first compound 0.253 µM
quantity-name: relative viability

molecule | study-system | quantity-name | experimental-result
Cc1cnc(-c2cnc(NCCNc3ccc(C#N)cn3)nc2-c2ccc(Cl)cc2Cl)[nH]1 + COc1cccc2cc(-c3nc([C@H]4CC[C@H](C(=O)O)CC4)n4ncnc(N)c34)[nH]c12 [OSI-027] (partner 0.5 µM) | NCI-H1623 | relative viability | 0.417
O=c1[nH]c2ccccc2n1C1CCN(CCCC(c2ccc(F)cc2)c2ccc(F)cc2)CC1 [Pimozide] + Cc1cc(Nc2cc(N3CCN(C)CC3)nc(Sc3ccc(NC(=O)C4CC4)cc3)n2)n[nH]1 [Tozasertib] (partner 0.1 µM) | NCI-H1623 | relative viability | 0.439
O=c1[nH]c2ccccc2n1C1CCN(CCCC(c2ccc(F)cc2)c2ccc(F)cc2)CC1 [Pimozide] + CCNC(=O)c1noc(-c2cc(C(C)C)c(O)cc2O)c1-c1ccc(CN2CCOCC2)cc1 [Luminespib] (partner 0.01 µM) | NCI-H1623 | relative viability | 0.515
Cc1cnc(-c2cnc(NCCNc3ccc(C#N)cn3)nc2-c2ccc(Cl)cc2Cl)[nH]1 + COc1cc2c(Oc3ccc(NC(=O)C4(C(=O)Nc5ccc(F)cc5)CC4)cc3F)ccnc2cc1OCCCN1CCOCC1 [Foretinib] (partner 0.25 µM) | NCI-H1623 | relative viability | 0.828
Cc1cnc(-c2cnc(NCCNc3ccc(C#N)cn3)nc2-c2ccc(Cl)cc2Cl)[nH]1 + Cc1nc(Nc2ncc(C(=O)Nc3c(C)cccc3Cl)s2)cc(N2CCN(CCO)CC2)n1 [Dasatinib] (partner 0.075 µM) | NCI-H1623 | relative viability | 0.536
